Attribution: paper PMC7577714

Target: the molecule itself
Assay: solution NMR (signal intensities of monomer and trimer) + SEC-MALS; fraction of monomer against total Skp concentration, 25°C, 20 mM MES pH 6.5, 150 mM NaCl; monomer to trimer; C0.5 is the protein concentration at which half of the molecules are monomeric
The following proteins are shown together with reported C0.5 values.
Unit µM implied. Number only.

Skp(A103R) (natural protein, E. coli, UniProt P0AEU7 21-161, looked up, Monomer-trimer equilibrium shifted toward the monomer; source: E. coli BL21-(λ DE3)-Lemo, purified (Ni-NTA, SEC); not shown: His6, N-terminal, kept) ADKIAIVNMGSLFQQVAQKTGVSNTLENEFKGRASELQRMETDLQAKMKKLQSMKAGSDRTKLEKDVMAQRQTFAQKAQAFEQDRARRSNEERGKLVTRIQTRVKSVANSQDIDLVVDANAVAYNSSDVKDITADVLKQVK = 7
Skp(WT), seventeen kilodalton protein, periplasmic chaperone of Escherichia coli (natural protein, E. coli, UniProt P0AEU7 21-161, looked up, Stands in a monomer-trimer equilibrium; the active form is the homotrimer; The thrombin-cleavable His6-tag of pET28b was not cleaved; Isotope-labelled for NMR in some samples; source: E. coli BL21-(λ DE3)-Lemo, purified (Ni-NTA, SEC); not shown: His6, N-terminal, kept) ADKIAIVNMGSLFQQVAQKTGVSNTLENEFKGRASELQRMETDLQAKMKKLQSMKAGSDRTKLEKDVMAQRQTFAQKAQAFEQDRARRSNEERGKLVTRIQTAVKSVANSQDIDLVVDANAVAYNSSDVKDITADVLKQVK = 1.5
Skp(A108L) (natural protein, E. coli, UniProt P0AEU7 21-161, looked up, Monomer-trimer equilibrium strongly shifted toward the monomer; also called Skp(108L); source: E. coli BL21-(λ DE3)-Lemo, purified (Ni-NTA, SEC); not shown: His6, N-terminal, kept) ADKIAIVNMGSLFQQVAQKTGVSNTLENEFKGRASELQRMETDLQAKMKKLQSMKAGSDRTKLEKDVMAQRQTFAQKAQAFEQDRARRSNEERGKLVTRIQTAVKSVLNSQDIDLVVDANAVAYNSSDVKDITADVLKQVK = 80

// next item, C0.5 requested
Form field C0.5, entry Skp(A103L) (natural protein, E. coli, UniProt P0AEU7 21-161, looked up, Monomer-trimer equilibrium essentially as the wild type; source: E. coli BL21-(λ DE3)-Lemo, purified (Ni-NTA, SEC); not shown: His6, N-terminal, kept) ADKIAIVNMGSLFQQVAQKTGVSNTLENEFKGRASELQRMETDLQAKMKKLQSMKAGSDRTKLEKDVMAQRQTFAQKAQAFEQDRARRSNEERGKLVTRIQTLVKSVANSQDIDLVVDANAVAYNSSDVKDITADVLKQVK : 1.5
